Reference source: paper PMC7470945

- target-or-system: T1, SBDSco E156Q (Streptomyces coelicolor, UniProt Q9L0M9 90-250, E156Q)
- T1 sequence: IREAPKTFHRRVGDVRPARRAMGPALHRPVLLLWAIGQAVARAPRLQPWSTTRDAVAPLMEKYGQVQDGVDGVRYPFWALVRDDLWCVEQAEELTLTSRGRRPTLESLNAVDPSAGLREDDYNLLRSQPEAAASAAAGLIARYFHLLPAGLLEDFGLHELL
- experiment-notes: fluorescence polarization; FP: 20 mM Tris-HCl pH 8.0, 50 mM NaCl, 5% glycerol, 1 mM DTT, 5 nM probe, room temperature; EMSA: 20 mM Tris-HCl pH 8.0, 100 mM NaCl, 5% glycerol, room temperature, protein 4x DNA
- condition: protein: recombinant; tags: 6xHis; label: 5'-FAM on one strand (FP); blunt
Kindly state pKd for each of the entries shown.
The quantity pKd is defined as the negative base-10 logarithm of the molar concentration.

Exam item: Query (binder): PT-GAAC-10 RP (hemi-PT) (dsDNA, RP phosphorothioate between G4 and A5 of strand 1) DNA 1: GGCGAACGTG DNA 2: CACGTTCGCC ; field requested: pKd
Marked response: 6.21

Exam item: // returns reported pKd for input PT-GATC-10 RP (hemi-PT) (dsDNA, RP phosphorothioate between G4 and A5 of strand 1) DNA 1: GATGATCCTA DNA 2: TAGGATCATC
Marked response: 5.99
